Tested on: c-Src
method.notes: phosphorylation enrichment, bacterial display (enrichment ratio); higher = better substrate or ligand; peptides without Tyr show the background;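 note: 11-residue human phosphosite peptides and single-mutation variants displayed on the E. coli surface, counted by deep sequencing, each peptide's frequency after selection divided by its frequency in the unselected input library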;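 note: frequency after pTyr selection over input frequency; kinase dosed for 20-30% of maximal phosphorylation in three min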
This listing pairs sequences with measured phosphorylation enrichment.
Write the number on its own, no unit after it.

Solved entries:
* LVMFIYDIFGM [SCN1A_Y1684_A1685D] | 6.25
* YSNVLYRPRGA [TMIGD2_Y197] | 0.558
* ENAGYYFRISA | 0.356

From here, focus on the item given below.
GET /value?item= LLVVLCKYRCY [PSEN1_Y154_Y154C] &field=phosphorylation enrichment returns 0.369

====

Tested on: Fer (mouse)
method.notes: phosphorylation enrichment, bacterial display (enrichment ratio); higher = better substrate or ligand; peptides without Tyr show the background
Recorded phosphorylation enrichment, one value per entry.
Write the value as a bare number.

Examples from the recorded data:
* QRDSSYYWEIE [RAF1_Y340] | 0.536
* KRLFAYKMLMA [TMC2_Y209_Q205R_YF] | 0.59
* RRQDLYSARDL [SART1_Y249] | 0.401
* APSHAYHRGVL [ANO1_Y981_G983R] | 0.411
* CTTIHYNYMHN [TP53_Y234_C238H] | 0.488

Reading of phosphorylation enrichment for TTGGFYSYGGG [KRT24_Y120_A115T] with Fer (mouse): 4.54

So the reported phosphorylation enrichment for LTDTVYSSSSA [OR4C12_Y71_I67T] , on Fer (mouse), turned out to be 1.69

Lab entry: Fer (mouse) assay, sequence DISEPYEVYRI [IRF8_Y107_K108E] , phosphorylation enrichment = 9.63

Reported Fer (mouse) phosphorylation enrichment for item YRDALYKSMVD [PHEX_Y250_F252S] was 0.421

I looked up TGEKLYQHKEF [ZNF283_Y627_R629H] and its phosphorylation enrichment for Fer (mouse) was 0.436

====

target.or.system: Fyn (UniProt P06241)
Sequence (P06241 whole entry, looked up): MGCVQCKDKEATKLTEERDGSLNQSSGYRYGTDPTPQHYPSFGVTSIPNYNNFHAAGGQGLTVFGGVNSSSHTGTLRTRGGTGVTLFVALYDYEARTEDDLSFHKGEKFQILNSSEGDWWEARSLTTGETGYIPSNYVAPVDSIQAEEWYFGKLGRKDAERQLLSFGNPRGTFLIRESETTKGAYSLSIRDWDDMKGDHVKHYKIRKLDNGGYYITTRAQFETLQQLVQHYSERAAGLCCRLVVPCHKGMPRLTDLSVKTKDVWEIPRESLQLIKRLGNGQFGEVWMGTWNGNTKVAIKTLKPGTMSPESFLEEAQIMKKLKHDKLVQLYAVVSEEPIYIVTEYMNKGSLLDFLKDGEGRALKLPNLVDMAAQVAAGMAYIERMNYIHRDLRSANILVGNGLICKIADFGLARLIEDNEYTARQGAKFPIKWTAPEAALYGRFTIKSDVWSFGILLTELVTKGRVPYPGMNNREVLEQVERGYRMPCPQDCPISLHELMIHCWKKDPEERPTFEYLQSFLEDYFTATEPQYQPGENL
method.notes: phosphorylation enrichment, bacterial display (enrichment ratio); higher = better substrate or ligand; peptides without Tyr show the background
measured.property: phosphorylation enrichment
The answer should be a number; do not append a unit.

Reference set, count: 6
- SQSPHYFRSGQ [GPATCH8_Y1038_R1043Q]: 0.345
- LQTFHYHGHSM [PDHA1_Y289_R288H_YF]: 0.501
- TGEKLYQHKEF [ZNF283_Y627_R629H]: 0.39
- EHFSYYGMKAV [SLC15A2_Y61_R57H]: 1.71
- RLLVLYPWTQR [HBB_Y36_V35L]: 0.791
- TTKVSYRASQP [MKI67_Y1737]: 0.311

Memo: MARDIYRASYY [ALK_Y1278] , reported phosphorylation enrichment: 0.688

====

Items are presented alongside their recorded phosphorylation enrichment.
target.or.system: MERTK (UniProt Q12866)
Sequence (Q12866 whole entry, looked up): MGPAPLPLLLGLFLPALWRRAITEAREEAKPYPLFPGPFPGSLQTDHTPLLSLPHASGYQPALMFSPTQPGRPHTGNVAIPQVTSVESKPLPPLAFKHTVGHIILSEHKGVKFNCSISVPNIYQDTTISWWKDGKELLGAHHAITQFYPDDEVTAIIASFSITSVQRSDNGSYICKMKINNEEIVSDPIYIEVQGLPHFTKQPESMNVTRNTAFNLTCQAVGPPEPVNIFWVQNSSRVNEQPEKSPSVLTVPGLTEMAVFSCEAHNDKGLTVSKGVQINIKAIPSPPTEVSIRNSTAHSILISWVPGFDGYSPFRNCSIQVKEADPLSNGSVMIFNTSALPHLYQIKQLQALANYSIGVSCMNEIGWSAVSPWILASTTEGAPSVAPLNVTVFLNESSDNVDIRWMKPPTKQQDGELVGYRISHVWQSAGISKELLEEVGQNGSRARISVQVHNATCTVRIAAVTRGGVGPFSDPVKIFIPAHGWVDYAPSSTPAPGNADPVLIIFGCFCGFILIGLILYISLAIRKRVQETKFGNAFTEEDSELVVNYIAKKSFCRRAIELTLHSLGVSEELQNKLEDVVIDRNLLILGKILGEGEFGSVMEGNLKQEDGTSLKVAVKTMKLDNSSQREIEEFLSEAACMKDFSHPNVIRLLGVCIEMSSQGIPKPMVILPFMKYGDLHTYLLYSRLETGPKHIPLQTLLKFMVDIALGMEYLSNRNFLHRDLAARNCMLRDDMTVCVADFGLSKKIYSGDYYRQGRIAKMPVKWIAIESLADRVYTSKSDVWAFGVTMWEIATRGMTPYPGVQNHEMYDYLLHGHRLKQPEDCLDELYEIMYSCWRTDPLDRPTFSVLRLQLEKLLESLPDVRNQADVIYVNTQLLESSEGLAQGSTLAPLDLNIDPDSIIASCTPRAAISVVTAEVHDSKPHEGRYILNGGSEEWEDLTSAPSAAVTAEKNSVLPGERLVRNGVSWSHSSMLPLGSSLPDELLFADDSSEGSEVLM
method.notes: phosphorylation enrichment, bacterial display (enrichment ratio); higher = better substrate or ligand; peptides without Tyr show the background
Response field accepts a number only; no unit should be typed.

Worked cases, phosphorylation enrichment given:
- LDPMVYMNDKS [PTK2B_Y834]: 0.648
- RDMMDYMPQGV [CYP21A2_Y259_L261P]: 0.681
- LWKWKYEELKE [CCDC102B_Y299]: 0.336
- APSHAYHRGVL [ANO1_Y981_G983R]: 0.38
- TQNGVYSAANF [DDX5_Y535_YF]: 6.66

According to the records, this sequence HFPDVYAWEQL [ALX3_Y181_R183W_YF] displays phosphorylation enrichment of 2.25

Recorded result, KQINDYVEKGT [SERPINA1_Y184] , phosphorylation enrichment: 0.374

The sequence GHLYAYNWISI [BEST1_Y227_D228N] showed phosphorylation enrichment equal to 8.13

Lab book: phosphorylation enrichment of PTTKTYFPHFH [HBA1_Y43_D48H] noted as 0.605

phosphorylation enrichment reported for this sequence LVMFIYDIFGM [SCN1A_Y1684_A1685D] : 5.95

The sequence listed as SQINLYQDVML [ZNF806_Y33_A28S] shows phosphorylation enrichment equal to 1.81

phosphorylation enrichment measured on SSEYHYVGGFY [CTSC_Y347] = 6.87

Notebook: ISDNAYQYMLT [MYH7_Y162] , phosphorylation enrichment read as 2.15

GET /value?item= SIKDKYVTVLY [KCNH2_Y611_A614V] &field=phosphorylation enrichment returns 0.437
